Exercise: state measured Percent Effect for each of the molecules provided.
biological target: Sialic acid-binding Ig-like lectin 9 (Homo sapiens) (UniProt Q9Y336); test: Hs-Siglec9 ALPHAscreen SOP 20170721; set-up: scale not given: direction of the effect not stated beside the values; conditions: 10 µM
Sequence (Q9Y336 whole entry): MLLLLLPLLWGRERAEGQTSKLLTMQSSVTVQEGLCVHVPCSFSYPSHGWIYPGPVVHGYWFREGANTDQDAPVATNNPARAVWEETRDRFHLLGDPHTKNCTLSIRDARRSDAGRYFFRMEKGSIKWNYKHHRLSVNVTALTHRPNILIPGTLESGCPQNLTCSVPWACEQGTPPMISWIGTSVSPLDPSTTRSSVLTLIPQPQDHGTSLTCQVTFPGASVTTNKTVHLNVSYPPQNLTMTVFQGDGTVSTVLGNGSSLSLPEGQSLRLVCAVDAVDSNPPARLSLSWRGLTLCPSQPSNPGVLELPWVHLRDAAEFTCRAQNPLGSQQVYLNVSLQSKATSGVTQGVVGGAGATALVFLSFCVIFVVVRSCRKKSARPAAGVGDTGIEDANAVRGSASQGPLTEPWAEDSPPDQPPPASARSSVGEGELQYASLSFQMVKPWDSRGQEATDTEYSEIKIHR
One number for each entry, in %.

| Molecule | Measurement target | Units text | Percent Effect |
| --- | --- | --- | --- |
| COc1cccc(CNC(CN2CCN(C)CC2)c2ccccc2)c1 (centres undefined) | Sialic acid-binding Ig-like lectin 9 (Homo sapiens) (UniProt Q9Y336) | % | -1.53 |
| COc1ncc(CN2CC[C@@](C)(O)[C@H](Oc3cccc(F)c3)C2)cn1 | Sialic acid-binding Ig-like lectin 9 (Homo sapiens) (UniProt Q9Y336) | % | -0.132 |
| COc1ccccc1OCC(=O)NS(=O)(=O)c1ccc(C)s1 | Sialic acid-binding Ig-like lectin 9 (Homo sapiens) (UniProt Q9Y336) | % | 0.674 |
| Cc1ccsc1CN(C)C(=O)Cn1nc(-c2ccc(F)cc2)oc1=O | Sialic acid-binding Ig-like lectin 9 (Homo sapiens) (UniProt Q9Y336) | % | -2.29 |
| O=C(NCN1CCc2ccccc2C1)c1cnccn1 | Sialic acid-binding Ig-like lectin 9 (Homo sapiens) (UniProt Q9Y336) | % | -3.19 |

# batch: return Percent Effect for each of the 6 molecules below
1. Cc1nc(CN(Cc2cccs2)C2CCS(=O)(=O)C2)oc1C (centres undefined)
2. NC(=O)CC1CCN(C(=O)CCOc2ccc(Cl)cc2)CC1
3. O=C1[C@@H]2CCN(Cc3ccoc3)C[C@@H]2OCCN1c1ccccc1
4. CCNC(=O)C1CCN(Cc2csc(-c3ccc(C)o3)n2)CC1
5. COc1ccc(C(C(=O)O)N2CCCN(C3CCCCC3)CC2)cn1 (centres undefined)
6. Cc1[nH]ccc1C(=O)N1CCCC(c2nccn2Cc2cscn2)C1 (centres undefined)

*A*
[1.17, 4.69, 1.36, 2.17, 8.33, 27.9]

Hello, the source for this data is ChEMBL document CHEMBL3988442, in case you need it.
